Measured inhibition accompanies every entry in the list below.
target: L-lactate dehydrogenase (Plasmodium falciparum (isolate CDC / Honduras)) (UniProt Q27743); assay: PfLDH activity inhibition – cell lysate, 3D7 strain, counter-screen for P. falciparum growth inhibition project (AID 2304);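 further: 0% = vehicle and 100% = reference inhibitor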; conditions: P. falciparum 3D7 crude extract, LDH APAD/NBT absorbance; at 2 µM; active compounds read high
Sequence (Q27743 whole entry, looked up): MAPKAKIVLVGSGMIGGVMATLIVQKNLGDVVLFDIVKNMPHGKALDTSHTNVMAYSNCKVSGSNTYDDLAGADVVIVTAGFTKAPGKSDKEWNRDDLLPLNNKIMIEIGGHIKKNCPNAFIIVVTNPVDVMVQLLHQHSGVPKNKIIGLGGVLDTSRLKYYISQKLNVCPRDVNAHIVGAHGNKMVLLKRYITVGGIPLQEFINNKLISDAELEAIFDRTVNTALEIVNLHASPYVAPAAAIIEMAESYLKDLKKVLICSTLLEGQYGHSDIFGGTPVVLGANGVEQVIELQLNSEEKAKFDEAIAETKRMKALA
The answer is to be given in %; state only the numeric part.

[[record]]
molecule = "Cc1cccc2[nH]c(-c3cccc(-c4ccc(CNCc5cccc(N)c5)cc4)c3)nc12"
observed = -3

[[record]]
molecule = "CS(=O)(=O)c1ccc(-c2cnc(N)c(-c3ccc(O)cc3)c2)cc1"
observed = 2

[[record]]
molecule = "COc1cc(OC)c2c(C)cc(NCCCN3CCOCC3)nc2c1"
observed = 0


Here is another molecule to look at.
Prompt: Entry COc1ccccc1C1CN(Cc2coc3ccccc3c2=O)Cc2ccccc2O1 (centres undefined) : reported inhibition = ?
Completion: 2

###

experiment: human hepatoma cell viability loss – ATP luminescence, cytotoxicity control for P. falciparum antimalarial project, primary screen (AID 2303); conditions: HepG2 viability, 24-48 h, at 10 µM, active compounds read high;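 further: 0% = DMSO wells and 100% = digitonin-killed cells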
Note to self: use t only for inhibition readings below 10%; a reading exactly at 10% still gets f.

[[record]]
compound = "CON(C)C(=O)[C@@H](CCCCNC(=O)OCc1ccccc1)NC(=O)OC(C)(C)C"
qualitative_label = "t"

[[record]]
compound = "OC1CCCN(Cc2cccc(-c3ccc(-c4nc5ccc(F)cc5[nH]4)cc3)c2)C1 (stereo not drawn)"
qualitative_label = "f"

[[record]]
compound = "Nc1ccc(Nc2ccnc3ccc(C(F)(F)F)cc23)cc1O"
qualitative_label = "t"

[[record]]
compound = "CCc1sc(N2CCC(C)CC2)nc1C(=O)Nc1ccc(F)cc1C(F)(F)F"
qualitative_label = "t"

[[record]]
compound = "COc1ccc(CC(=O)Nc2ccc(Nc3nc(C)cc(N4CCCC4)n3)cc2)cc1"
qualitative_label = "f"


Prompt: Dear colleague, could you confirm whether inhibition of COc1ccc(NC(=O)Nc2ccc(-c3ccccc3)cc2)cc1Cn1cnc(N2CCCNCC2)cc1=O falls below 10%? Thanks.
Completion: f

Prompt: Just wondering, is inhibition of CO/C(=C\C=C\c1cc2cc(Cl)c(Cl)cc2[nH]1)C(=O)NCCCN1CCN(c2ccncc2)CC1 below 10%?
Completion: f

Prompt: API: query returns whether the compound falls strictly under 10% in inhibition. Query: CCCOc1ccc(C=C(CC(=O)O)c2nc3ccccc3s2)cc1OCC
Completion: t

Prompt: Could you please tell me whether inhibition recorded for CCCNCc1ccc(-c2ccc(CN(Cc3ccc4c(c3)OCO4)C(=O)[C@H]3CCCO3)cc2)nc1 is less than 10%?
Completion: f

Prompt: Could you please tell me whether inhibition recorded for Cc1nnsc1C(=O)Nc1cccc(-c2ccc(-c3nc4ccc(C(F)(F)F)cc4[nH]3)cc2)c1 is less than 10%?
Completion: f

Prompt: Strictly below 10% in inhibition? CC1CN(Cc2csc(Nc3ccccc3)n2)CC(C)O1 (stereo not drawn)
Completion: t

Prompt: In plain terms, does Cc1cccc2[nH]c(-c3ccc(-c4ccc(CNCc5ccc(CN)cc5)cc4)s3)nc12 come in under 10% for inhibition?
Completion: t

Prompt: Lab note: inhibition threshold 10%. Does this compound come in strictly under it? COc1cccc(CNC(=O)NC2CCN(c3ccnc(Nc4cc(OC)c(OC)c(OC)c4)n3)C2)c1 (stereo not drawn)
Completion: f
